- ASSAYED_SYSTEM: T1, huNav1.7α (human Nav1.7 alpha subunit, expressed without β subunits) (human, UniProt Q15858 1-1988)
- T1 construct: also called HEK293 human Nav1.7α; HEKa Nav1.7α
- EXPERIMENT_DESCRIPTION: binding FACS, HEKa cells
Entries and their measured Bmax follow.
Give the number; % is assumed, so skip it.

INSERT INTO results (binder, readout_value) VALUES
  ('F010301649 (VHH, also called F0103387G05(L11V, A14P, N82bS, N83R, V89L, R105Q)) VHH: EVQLVESGGGVVQPGGSLRLSCDASGRILRIGYMRWHRQGAGKQREFVARITDDSATDYADSVKGRFTISRDNAKNTVYLQMNSLRPEDTALYYCEALVTASVRGGSIHSGTYWGQGTLVTVSS', 100);

Now look at this one.
Data request: What measured Bmax goes with F010302307 (VHH, also called F0103387G05(L11V, A14P, D23A, H37Y, G40A, A41P, D58G, N73A, N82bS, N83R, V89L, R105Q)) VHH: EVQLVESGGGVVQPGGSLRLSCAASGRILRIGYMRWYRQAPGKQREFVARITDDSATGYADSVKGRFTISRDAAKNTVYLQMNSLRPEDTALYYCEALVTASVRGGSIHSGTYWGQGTLVTVSS ?
Data returned: 100

Cited source for all entries: patent US20240002497A1
